test system: LG0703-F948-PDC complex spheroid viability; assay: Anticancer human tumor LG0703-F948-PDC patient-derived lung adenocarcinoma cell line growth inhibition; conditions: second compound 0.316 µM; first compound 0.1 µM; active = viability on the fitted dose curve at most 10% of control; inactive = the rest;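 note: spheroids exposed to agents for seven days before readout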
Outcome codes: active, inactive

[
  {
    "compound": "CC[C@@]1(O)C(=O)OCc2c1cc1n(c2=O)Cc2cc3c(CN(C)C)c(O)ccc3nc2-1 + NC1CCC(NC2CC2c2ccccc2)CC1",
    "class.assignment": "inactive"
  },
  {
    "compound": "COc1cc(Nc2ncc3c(n2)-c2ccc(Cl)cc2C(c2c(F)cccc2OC)=NC3)ccc1C(=O)O + NC1CCC(NC2CC2c2ccccc2)CC1",
    "class.assignment": "inactive"
  },
  {
    "compound": "CC(C)CC(NC(=O)CNC(=O)c1cc(Cl)ccc1Cl)B1OC(=O)CC(CC(=O)O)(C(=O)O)O1 (configuration not stated) + NC1CC1c1ccc(-c2cccc(O)c2)cc1",
    "class.assignment": "active"
  },
  {
    "compound": "CC(C)c1c(-c2ccccc2)nc2c(C#N)c[nH]n2c1=O + NC1CCC(NC2CC2c2ccccc2)CC1",
    "class.assignment": "inactive"
  },
  {
    "compound": "CC1COCCN1c1cc(-c2ccnn2C)c2ccnc(-c3ccn[nH]3)c2n1 (configuration not stated) + NC1CC1c1ccc(-c2cccc(O)c2)cc1",
    "class.assignment": "inactive"
  },
  {
    "compound": "O=C(C=Cn1cnc(-c2cc(C(F)(F)F)cc(C(F)(F)F)c2)n1)NNc1cnccn1 + NC1CC1c1ccc(-c2cccc(O)c2)cc1",
    "class.assignment": "inactive"
  },
  {
    "compound": "CC1(C)CCC(CN2CCN(c3ccc(C(=O)NS(=O)(=O)c4ccc(NCC5CCOCC5)c([N+](=O)[O-])c4)c(Oc4cnc5[nH]ccc5c4)c3)CC2)=C(c2ccc(Cl)cc2)C1 + NC1CCC(NC2CC2c2ccccc2)CC1",
    "class.assignment": "inactive"
  },
  {
    "compound": "O=C(C=Cn1cnc(-c2cc(C(F)(F)F)cc(C(F)(F)F)c2)n1)NNc1cnccn1 + NC1CCC(NC2CC2c2ccccc2)CC1",
    "class.assignment": "inactive"
  },
  {
    "compound": "CC(C)CC(NC(=O)C(Cc1ccccc1)NC(=O)c1cnccn1)B(O)O (configuration not stated) + NC1CCC(NC2CC2c2ccccc2)CC1",
    "class.assignment": "active"
  },
  {
    "compound": "CC(C)CC(NC(=O)CNC(=O)c1cc(Cl)ccc1Cl)B1OC(=O)CC(CC(=O)O)(C(=O)O)O1 (configuration not stated) + NC1CCC(NC2CC2c2ccccc2)CC1",
    "class.assignment": "active"
  },
  {
    "compound": "CC1COCCN1c1cc(C2(S(C)(=N)=O)CC2)nc(-c2ccnc3[nH]ccc23)n1 (configuration not stated) + NC1CCC(NC2CC2c2ccccc2)CC1",
    "class.assignment": "inactive"
  },
  {
    "compound": "Nc1ncn(C2CC(O)C(CO)O2)c(=O)n1 (configuration not stated) + NC1CC1c1ccc(-c2cccc(O)c2)cc1",
    "class.assignment": "inactive"
  }
]
